- ASSAY_TARGET: Inosine-5'-monophosphate dehydrogenase 2 (Homo sapiens, UniProt P12268)
Binary label based on IC50 with cut-off 20 nM: below gives Criterion met, not below gives Criterion not met.

COc1cc2[nH]c(=S)n(C)c(=O)c2cc1-c1cnco1
Criterion met
COc1cc2[nH]c(=O)n(CCc3ccncc3)c(=O)c2cc1-c1cnco1
Criterion not met
COc1cc2[nH]c(=S)n(CCc3ccccn3)c(=O)c2cc1-c1cnco1
Criterion not met
COc1cc2[nH]c(=S)n(-c3cccnc3)c(=O)c2cc1-c1cnco1
Criterion not met
COc1cc2[nH]c(=S)n(CCCn3ccnc3)c(=O)c2cc1-c1cnco1
Criterion not met
COc1cc2[nH]c(=O)n(C)c(=O)c2cc1-c1cnco1
Criterion not met
COc1cc2[nH]c(=S)n(CCc3ccncc3)c(=O)c2cc1-c1cnco1
Criterion met
